molecular target: Peroxisome proliferator-activated receptor alpha (Homo sapiens) (UniProt Q07869); assay: Agonist activity at human PPAR alpha in a HepG2 cells by PPAR-GAL4 transactivation assay relative to GW-2331; type: functional, cell-based
Measured Attribute: %max (%)
Dear colleague, please return just the value in %, with no unit written.

COC(Cc1ccc(OCCc2ccc(Oc3cccc(Cl)c3)cc2C)nc1)C(=O)O (stereo unspecified)
100
Cc1oc(-c2ccc(C(F)(F)F)cc2)nc1CCOc1ccc(CC2(C(=O)O)CCCO2)cn1 (stereo unspecified)
143
Cc1oc(-c2ccccc2)nc1CCOc1ccc(C[C@]2(C(=O)O)CCCO2)cn1
89
Cc1oc(-c2ccccc2)nc1CCOc1ccc(CC2(C(=O)O)CC2)cn1
39
Cc1ccc(-c2nc(CCOc3ccc(CC4(C(=O)O)CCCO4)cn3)c(C)o2)cc1 (stereo unspecified)
84

Task: Would you mind telling me what %max value was observed for `CO[C@@](C)(Cc1ccc(OCCc2nc(-c3ccccc3)oc2C)nc1)C(=O)O` ?
Result: 99

Task: Would you mind telling me what %max value was observed for COc1cccc(-c2nc(CCOc3ccc(CC4(C(=O)O)CCCO4)cn3)c(C)o2)c1 (stereo unspecified) ?
Result: 104

Task: Would you mind telling me what %max value was observed for Cc1oc(-c2ccccc2)nc1CCOc1ccc(CC2(C(=O)O)CCCCO2)cn1 (stereo unspecified) ?
Result: 96

Task: Would you mind telling me what %max value was observed for Cc1oc(-c2ccc(C#N)cc2)nc1CCOc1ccc(CC2(C(=O)O)CCCO2)cn1 (stereo unspecified) ?
Result: 167

Task: Would you mind telling me what %max value was observed for `Cc1oc(-c2ccccc2)nc1CCOc1ccc(CC(C)(C)C(=O)O)cn1` ?
Result: 112

Task: Would you mind telling me what %max value was observed for Cc1oc(-c2ccccc2)nc1CCOc1ccc(CC(CC(C)C)C(=O)O)cn1 (stereo unspecified) ?
Result: 98

Task: Would you mind telling me what %max value was observed for Cc1oc(-c2ccc(Cl)cc2)nc1CCOc1ccc(CC2(C(=O)O)CCCO2)cn1 (stereo unspecified) ?
Result: 87

Task: Would you mind telling me what %max value was observed for Cc1oc(-c2ccccc2)nc1CCOc1ccc(CC2(C(=O)O)CCCO2)cn1 (stereo unspecified) ?
Result: 106

Task: Would you mind telling me what %max value was observed for CCC(Cc1ccc(OCCc2nc(-c3ccccc3)oc2C)nc1)C(=O)O (stereo unspecified) ?
Result: 106

Task: Would you mind telling me what %max value was observed for CCOC(Cc1ccc(OCCc2nc(-c3ccccc3)oc2C)nc1)C(=O)O (stereo unspecified) ?
Result: 96

* * *

Biological target: Peroxisome proliferator-activated receptor alpha (Homo sapiens)
Sequence (Q07869 whole entry): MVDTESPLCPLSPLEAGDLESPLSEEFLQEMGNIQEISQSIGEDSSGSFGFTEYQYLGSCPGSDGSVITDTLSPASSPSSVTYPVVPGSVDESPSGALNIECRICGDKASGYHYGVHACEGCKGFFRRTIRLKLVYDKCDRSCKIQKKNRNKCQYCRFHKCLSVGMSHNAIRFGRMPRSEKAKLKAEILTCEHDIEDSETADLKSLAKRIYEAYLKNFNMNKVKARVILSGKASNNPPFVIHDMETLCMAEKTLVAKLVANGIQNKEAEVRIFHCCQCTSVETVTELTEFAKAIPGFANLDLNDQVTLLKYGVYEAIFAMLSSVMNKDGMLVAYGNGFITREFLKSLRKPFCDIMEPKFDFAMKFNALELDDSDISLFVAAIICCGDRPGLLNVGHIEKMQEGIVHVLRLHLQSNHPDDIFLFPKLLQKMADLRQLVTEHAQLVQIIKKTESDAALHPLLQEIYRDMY
Experiment: Agonist activity at human PPAR alpha in a HepG2 cells by PPAR-GAL4 transactivation assay
Binary label based on EC50 with cut-off 100 nM: below gives rule met, not below gives rule not met.

CO[C@@](C)(Cc1ccc(OCCc2nc(-c3ccccc3)oc2C)nc1)C(=O)O
rule not met

Task: Would you kindly verify if EC50 of `Cc1oc(-c2ccccc2)nc1CCOc1ccc(CC(C)(C)C(=O)O)cn1` is strictly less than 100 nM?
Result: rule not met

Task: Would you kindly verify if EC50 of CCC(Cc1ccc(OCCc2nc(-c3ccccc3)oc2C)nc1)C(=O)O (stereo not given) is strictly less than 100 nM?
Result: rule not met

Task: Would you kindly verify if EC50 of Cc1oc(-c2ccccc2)nc1CCOc1ccc(CC2(C(=O)O)CCCCO2)cn1 (stereo not given) is strictly less than 100 nM?
Result: rule not met

Task: Would you kindly verify if EC50 of Cc1oc(-c2ccc(C(F)(F)F)cc2)nc1CCOc1ccc(CC2(C(=O)O)CCCO2)cn1 (stereo not given) is strictly less than 100 nM?
Result: rule met

Task: Would you kindly verify if EC50 of Cc1oc(-c2ccccc2)nc1CCOc1ccc(CC(CC(C)C)C(=O)O)cn1 (stereo not given) is strictly less than 100 nM?
Result: rule not met

Task: Would you kindly verify if EC50 of Cc1oc(-c2ccc(Cl)cc2)nc1CCOc1ccc(CC2(C(=O)O)CCCO2)cn1 (stereo not given) is strictly less than 100 nM?
Result: rule met

Task: Would you kindly verify if EC50 of COC(C)(Cc1ccc(OCCc2nc(-c3ccccc3)oc2C)nc1)C(=O)O (stereo not given) is strictly less than 100 nM?
Result: rule not met

Task: Would you kindly verify if EC50 of Cc1ccc(-c2nc(CCOc3ccc(CC4(C(=O)O)CCCO4)cn3)c(C)o2)cc1 (stereo not given) is strictly less than 100 nM?
Result: rule met

Task: Would you kindly verify if EC50 of Cc1oc(-c2ccccc2)nc1CCOc1ccc(CC2(C(=O)O)CCCO2)cn1 (stereo not given) is strictly less than 100 nM?
Result: rule met
